These data points were gathered from patent US20070049626A1.

Assay: Tmax after oral administration of immediate release formulation
Assay type: in vivo
Conditions: human, blood, following oral administration
Quantity: Tmax

**Q:** What does the data say about its Tmax? Entry: NCC1(CC(=O)O)CCCCC1
**A:** 2.8 to 3.3 h
